Value source: the supplement of paper PMC10883282

relative viability values for the compounds below.
Tested on: SYO-1
Assay: relative viability vs DMSO control (72 h) (fraction); higher = more viable cells
Settings: 0.00017 µM
Counter-ions that a name gives are not always drawn.
Write the number on its own, no unit after it.

COc1cc2nccc(Oc3ccc(NC(=O)Nc4cc(C)on4)c(Cl)c3)c2cc1OC [Tivozanib]: 0.97
CCc1cc2c(cc1N1CCC(N3CCOCC3)CC1)C(C)(C)c1[nH]c3cc(C#N)ccc3c1C2=O [Alectinib]: 0.979
COc1cccc2c1C(=O)c1c(O)c3c(c(O)c1C2=O)C[C@@](O)(C(=O)CO)C[C@@H]3O[C@H]1C[C@H](N)[C@H](O)[C@H](C)O1 [Doxorubicin Hydrochloride]: 0.967
O=C(Cc1ccc(-c2ccc(OCCN3CCOCC3)cc2)cn1)NCc1ccccc1 [KX2-391]: 1
CO[C@H]1C[C@@H]2CC[C@@H](C)[C@@](O)(O2)C(=O)C(=O)N2CCCC[C@H]2C(=O)O[C@H]([C@H](C)C[C@@H]2CC[C@@H](OP(C)(C)=O)[C@H](OC)C2)CC(=O)[C@H](C)/C=C(\C)[C@@H](O)[C@@H](OC)C(=O)[C@H](C)C[C@H](C)/C=C/C=C/C=C/1C [Ridaforolimus]: 0.941

Record Cc1cnc(Nc2ccc(OCCN3CCCC3)cc2)nc1Nc1cccc(S(=O)(=O)NC(C)(C)C)c1 [Fedratinib] , field relative viability: 0.982

For record Cc1ccc(F)c(NC(=O)Nc2ccc(-c3cccc4[nH]nc(N)c34)cc2)c1 [Linifanib] the listed relative viability is 0.98

Briefly, relative viability measured for Cc1cc(C)c(/C=C2\C(=O)Nc3ccccc32)[nH]1 [Semaxanib] : 0.922

Input Nc1cc(C(F)(F)F)c(-c2cc(N3CCOCC3)nc(N3CCOCC3)n2)cn1 [Buparlisib] . Output relative viability: 0.933

----------
Test system: KHOS-240S
Assay: standardised AUC of viability dose-response curve (72 h) (fraction (0-1)); higher = less growth inhibition (more resistant)
Returns one of Condition met or Condition not met; Condition met when standardised AUC is >= 0.9.

Worked examples, 5 compounds total:
CN1CCN(c2ccc3nc(-c4c(N)c5c(F)cccc5[nH]c4=O)[nH]c3c2)CC1 [DOVITINIB]: Condition not met
Cc1nc(-c2cn3c(n2)-c2ccc(-c4cnn(C(C)(C)C(N)=O)c4)cc2OCC3)n(C(C)C)n1 [TASELISIB]: Condition not met
CC[C@H](Nc1ncnc2[nH]cnc12)c1nc2cccc(F)c2c(=O)n1-c1ccccc1 [IDELALISIB]: Condition met
CC(C)NC(=O)C1CCC(n2c(NC(=O)c3ccc(F)cc3)nc3ccc(CN4CCC(C(C)(C)O)CC4)cc32)CC1 (stereo not given) [BELIZATINIB]: Condition not met
CCc1cc2c(cc1N1CCC(N3CCOCC3)CC1)C(C)(C)c1[nH]c3cc(C#N)ccc3c1C2=O [ALECTINIB]: Condition met

Request: // inclusive: standardised AUC at least 0.9? input: N#CC[C@H](C1CCCC1)n1cc(-c2ncnc3[nH]ccc23)cn1 [RUXOLITINIB]
Response: Condition met

Request: In plain terms: is recorded standardised AUC at least 0.9 for CNC(=O)c1cc(Oc2ccc(NC(=O)Nc3ccc(Cl)c(C(F)(F)F)c3)c(F)c2)ccn1 [REGORAFENIB] ?
Response: Condition met

Request: Is reported standardised AUC greater than or equal to 0.9 here: C=CC(=O)N1CCC[C@@H](n2nc(-c3ccc(Oc4ccccc4)cc3)c3c(N)ncnc32)C1 [IBRUTINIB]
Response: Condition met

Request: standardised AUC >= 0.9 for CN1CCC(COc2cnc(-c3cccc(Cn4nc(-c5cccc(C#N)c5)ccc4=O)c3)nc2)CC1 [TEPOTINIB] ?
Response: Condition met

----------
Catalogue of relative viability readings, one per entry.
Tested on: SW684
Assay: relative viability vs DMSO control (72 h) (fraction); higher = more viable cells
Details: 0.00051 µM
Response field accepts a number only; no unit should be typed.

// solved cases for relative viability follow
C[C@@H](c1ccc2nccn2c1)n1nnc2ncc(-c3cnn(C)c3)nc21: 1.17
CN1CCC(COc2cnc(-c3cccc(Cn4nc(-c5cccc(C#N)c5)ccc4=O)c3)nc2)CC1: 1.21
CCc1cc2c(cc1N1CCC(N3CCOCC3)CC1)C(C)(C)c1[nH]c3cc(C#N)ccc3c1C2=O: 1.13
COc1cc2nccc(Oc3ccc(NC(=O)Nc4cc(C)on4)c(Cl)c3)c2cc1OC: 1.16
C=CC(=O)Nc1cccc(Oc2nc(Nc3ccc(N4CCN(C)CC4)cc3)nc3ccsc23)c1: 1.14

What the record says about C[C@@H]1COCCN1c1cc(-c2ccnn2C)c2ccnc(-c3ccn[nH]3)c2n1 : relative viability is 1.19

----------
Tested on: SW684
Experiment: relative viability vs DMSO control (72 h) (fraction); higher = more viable cells
Details: 0.01372 µM
experimentalEndpoint: relative viability
Form: value (number only, do not type unit).

O=C(Cc1ccc(-c2ccc(OCCN3CCOCC3)cc2)cn1)NCc1ccccc1: 1.15

relative viability for CC[C@H](Nc1ncnc2[nH]cnc12)c1nc2cccc(F)c2c(=O)n1-c1ccccc1 is 1.02

Recorded relative viability (molecule CC(C)NC(=O)C1CCC(n2c(NC(=O)c3ccc(F)cc3)nc3ccc(CN4CCC(C(C)(C)O)CC4)cc32)CC1 (stereo not drawn) ): 1.21

Form field relative viability, entry COc1cc2/c(=N/c3ccc(Br)cc3F)nc[nH]c2cc1OCC1CCN(C)CC1 : 1.16

According to the records, this molecule CN1CCN(c2ccc3nc(-c4c(N)c5c(F)cccc5[nH]c4=O)[nH]c3c2)CC1 displays relative viability of 1.18

----------
Tested on: SW982
Assay: relative viability vs DMSO control (72 h) (fraction); higher = more viable cells
Details: 10 µM
Counter-ions that a name gives are not always drawn.
Some molecules, each annotated with its measured relative viability.
In your answer, state the number alone without any accompanying words.

# count of solved cases: 5
CN1CCC(COc2cnc(-c3cccc(Cn4nc(-c5cccc(C#N)c5)ccc4=O)c3)nc2)CC1: 0.777
CCN1CCN(Cc2ccc(Nc3ncc(F)c(-c4cc(F)c5nc(C)n(C(C)C)c5c4)n3)nc2)CC1: 0.0803
Cc1ccc(F)c(NC(=O)Nc2ccc(-c3cccc4[nH]nc(N)c34)cc2)c1: 1.12
CC(C)(C)c1cc(NC(=O)Nc2ccc(-c3cn4c(n3)sc3cc(OCCN5CCOCC5)ccc34)cc2)no1: 1.05
COc1cccc2c1C(=O)c1c(O)c3c(c(O)c1C2=O)C[C@@](O)(C(=O)CO)C[C@@H]3O[C@H]1C[C@H](N)[C@H](O)[C@H](C)O1 [Doxorubicin Hydrochloride]: 0.139

Please fill in: relative viability reported for CNC(=O)c1ccc(-c2cnc3ncc(Cc4ccc5ncccc5c4)n3n2)cc1F = 1.02

relative viability measured on Cn1cnc2c(F)c(Nc3ccc(Br)cc3F)c(C(=O)NOCCO)cc21 = 0.765

relative viability measured on N#CC[C@H](C1CCCC1)n1cc(-c2ncnc3[nH]ccc23)cn1 = 0.614

----------
# relative viability per record follows
Test system: SW982
Experiment: relative viability vs DMSO control (72 h) (fraction); higher = more viable cells
Conditions: 0.00457 µM
# print the numeric value only

Would you please look over these solved cases?
N#CC[C@H](C1CCCC1)n1cc(-c2ncnc3[nH]ccc23)cn1: 0.949
O=C(Nc1cnn2ccc(N3CCC[C@@H]3c3cc(F)ccc3F)nc12)N1CC[C@H](O)C1: 1.07

Quick note, relative viability for CC(C)N1CCN(Cc2cnc(-c3cc(-c4cccc5[nH]ccc45)cc4[nH]ncc34)o2)CC1 landed at 0.923

----------
Below, each of the molecules is paired with its reported relative viability value.
Test system: G401
Experiment: relative viability vs DMSO control (72 h) (fraction); higher = more viable cells
Conditions: 0.00152 µM
Reply with the value as a number alone.

Below, 3 molecules whose answers are already recorded.
O=C(Cc1ccc(-c2ccc(OCCN3CCOCC3)cc2)cn1)NCc1ccccc1: 1.02
N#CC[C@H](C1CCCC1)n1cc(-c2ncnc3[nH]ccc23)cn1: 1.01
COCc1c(-c2cc3cc(C)cc(OC)c3s2)c2c(N)ncnn2c1CN1CCNC(=O)C1: 1.02

Kindly note the recorded relative viability for CC(C)(C)c1cc(NC(=O)Nc2ccc(-c3cn4c(n3)sc3cc(OCCN5CCOCC5)ccc34)cc2)no1 , which is 1.05

Reported relative viability for C[C@]1(O)C[C@@H](c2nc(-c3ccc4ccc(-c5ccccc5)nc4c3)c3c(N)nccn32)C1 was 1.02

// sample Nc1cc(C(F)(F)F)c(-c2cc(N3CCOCC3)nc(N3CCOCC3)n2)cn1 , its relative viability was 0.932

Entry CC(=O)Nc1cccc(-n2c(=O)n(C3CC3)c(=O)c3c(Nc4ccc(I)cc4F)n(C)c(=O)c(C)c32)c1 , relative viability reported as 0.952

# relative viability of Cc1cc(C)c(/C=C2\C(=O)Nc3ccccc32)[nH]1 = 0.957
